Values were extracted from patent US9084828B2.

target: UniProt:P00519; assay: ABL tyrosine kinase inhibition, off-chip incubation mobility-shift kinase assay (Caliper LABCHIP 3000); conditions: at 1.0E−09 (concentration unit not given); average of replicate wells
OBSERVED PROPERTY: ABL AVG % Activity at Specific Concentration

Exercise: API: value(readout=ABL AVG % Activity at Specific Concentration, system=UniProt:P00519) for record COCCOCCOCCOCCOCCOCCOCCOCCOCCNC(=O)OCCN1CCN(c2cc(Nc3ncc(C(=O)Nc4c(C)cccc4Cl)s3)nc(C)n2)CC1
Solution: 4%

Exercise: Please give the result for COCCOCCOCCOCC(=O)NC(CC(C)C)C(=O)OCCN1CCN(c2cc(Nc3ncc(C(=O)Nc4c(C)cccc4Cl)s3)nc(C)n2)CC1 (stereo not drawn) too.
Solution: 14%

Exercise: Record: COCCOCCOCCOCCOCCOCCOCCNC(=O)OCCN1CCN(c2cc(Nc3ncc(C(=O)Nc4c(C)cccc4Cl)s3)nc(C)n2)CC1
Solution: 4%

---

biological target: ABL (Homo sapiens, UniProt P00519)
Sequence (P00519 whole entry): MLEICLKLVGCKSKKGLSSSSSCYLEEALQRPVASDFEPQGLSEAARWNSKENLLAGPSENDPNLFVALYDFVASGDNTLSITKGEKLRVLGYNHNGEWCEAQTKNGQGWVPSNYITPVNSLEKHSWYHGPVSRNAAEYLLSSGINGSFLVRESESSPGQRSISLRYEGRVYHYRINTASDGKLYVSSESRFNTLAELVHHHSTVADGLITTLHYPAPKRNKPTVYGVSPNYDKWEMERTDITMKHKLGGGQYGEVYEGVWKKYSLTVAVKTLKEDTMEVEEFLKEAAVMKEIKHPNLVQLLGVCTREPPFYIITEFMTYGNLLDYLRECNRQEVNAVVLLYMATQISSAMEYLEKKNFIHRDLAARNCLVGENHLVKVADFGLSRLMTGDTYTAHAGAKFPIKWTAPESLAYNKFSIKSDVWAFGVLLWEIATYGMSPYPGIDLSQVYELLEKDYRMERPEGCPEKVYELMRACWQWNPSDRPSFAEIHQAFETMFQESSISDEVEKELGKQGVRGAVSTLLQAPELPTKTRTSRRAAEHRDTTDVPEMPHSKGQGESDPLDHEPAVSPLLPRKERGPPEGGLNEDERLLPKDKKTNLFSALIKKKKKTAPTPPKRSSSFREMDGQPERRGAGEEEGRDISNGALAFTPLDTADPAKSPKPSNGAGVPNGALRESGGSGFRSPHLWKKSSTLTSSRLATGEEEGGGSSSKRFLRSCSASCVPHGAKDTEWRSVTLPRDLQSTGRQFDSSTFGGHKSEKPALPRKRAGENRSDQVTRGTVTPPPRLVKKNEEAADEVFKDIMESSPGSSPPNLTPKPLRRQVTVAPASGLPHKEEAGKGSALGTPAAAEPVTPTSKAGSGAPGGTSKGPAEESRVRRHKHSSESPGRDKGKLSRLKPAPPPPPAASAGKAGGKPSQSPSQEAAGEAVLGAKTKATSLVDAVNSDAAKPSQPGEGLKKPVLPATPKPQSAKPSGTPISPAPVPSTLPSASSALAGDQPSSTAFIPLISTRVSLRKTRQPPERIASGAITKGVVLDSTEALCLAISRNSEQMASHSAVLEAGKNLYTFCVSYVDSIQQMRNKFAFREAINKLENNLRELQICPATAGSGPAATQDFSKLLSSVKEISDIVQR
Decide using IC50 alone. Strictly below 0.3 nM: met. Equal to or above 0.3 nM: not met.

COCCOCCOCCOCCOCCOCCOCCOCCOCCNC(=O)OCCN1CCN(c2cc(Nc3ncc(C(=O)Nc4c(C)cccc4Cl)s3)nc(C)n2)CC1 | not met

Exercise: Item COCCOCCOCCOCC(=O)OCCN1CCN(c2cc(Nc3ncc(C(=O)Nc4c(C)cccc4Cl)s3)nc(C)n2)CC1 : IC50 beneath 0.3 nM, strictly?
Solution: met

Exercise: Another: COCCOCCOCCOCC(=O)N[C@H](C(=O)OCCN1CCN(c2cc(Nc3ncc(C(=O)Nc4c(C)cccc4Cl)s3)nc(C)n2)CC1)C(C)C
Solution: not met

Exercise: Param item: COCCOCCOCCOCCOCCOCCOCCNC(=O)OCCN1CCN(c2cc(Nc3ncc(C(=O)Nc4c(C)cccc4Cl)s3)nc(C)n2)CC1
Solution: not met

---

target: ABL (Homo sapiens); assay: ABL tyrosine kinase inhibition, off-chip incubation mobility-shift kinase assay (Caliper LABCHIP 3000); settings: at 3.0E−09 (concentration unit not given); average of replicate wells
Readings of ABL AVG % Activity at Specific Concentration for the listed compounds
Respond with a number, then the unit of measure.

Exercise: Fill blank: measured ABL AVG % Activity at Specific Concentration of the compound COCCOCCOCCOCC(=O)NC(CC(C)C)C(=O)OCCN1CCN(c2cc(Nc3ncc(C(=O)Nc4c(C)cccc4Cl)s3)nc(C)n2)CC1 (stereo not shown) is ____.
Solution: 1%

Exercise: Similarly, COCCOCCOCCOCC(=O)OCCN1CCN(c2cc(Nc3ncc(C(=O)Nc4c(C)cccc4Cl)s3)nc(C)n2)CC1 ?
Solution: −1%

---

target: ABL (Homo sapiens, UniProt P00519); experiment: ABL tyrosine kinase inhibition, off-chip incubation mobility-shift kinase assay (Caliper LABCHIP 3000); conditions: at 1.0E−10 (concentration unit not given); average of replicate wells
We begin with a simple list: items and their reported ABL AVG % Activity at Specific Concentration.
Respond with the bare value in %.

Consider the worked cases shown below.
COCCOCCOCCOCCOCCOCCOCCOCCOCCNC(=O)OCCN1CCN(c2cc(Nc3ncc(C(=O)Nc4c(C)cccc4Cl)s3)nc(C)n2)CC1 [mPEG9-NHCOO-Dasatinib] | 80
COCCOCCOCCOCCOCCNC(=O)OCCN1CCN(c2cc(Nc3ncc(C(=O)Nc4c(C)cccc4Cl)s3)nc(C)n2)CC1 [mPEG5-NHCOO-Dasatinib] | 80
COCCOCCOCCOCC(=O)NC(CC(C)C)C(=O)OCCN1CCN(c2cc(Nc3ncc(C(=O)Nc4c(C)cccc4Cl)s3)nc(C)n2)CC1 (stereo not shown) [mPEG3-Leu-Dasatinib] | 85
COCCOCCOCCOCCOCCOCCOCCNC(=O)OCCN1CCN(c2cc(Nc3ncc(C(=O)Nc4c(C)cccc4Cl)s3)nc(C)n2)CC1 [mPEG7-NHCOO-Dasatinib] | 80

Exercise: Requested field: ABL AVG % Activity at Specific Concentration. Item: COCCOCCOCCNC(=O)OCCN1CCN(c2cc(Nc3ncc(C(=O)Nc4c(C)cccc4Cl)s3)nc(C)n2)CC1 [mPEG3-NHCOO-Dasatinib]
Solution: 81

Exercise: Query COCCOCCOCCOCC(=O)OCCN1CCN(c2cc(Nc3ncc(C(=O)Nc4c(C)cccc4Cl)s3)nc(C)n2)CC1 [mPEG3-COO-Dasatinib] next
Solution: 80

Exercise: Try COCCOCCOCCOCC(=O)N[C@H](C(=O)OCCN1CCN(c2cc(Nc3ncc(C(=O)Nc4c(C)cccc4Cl)s3)nc(C)n2)CC1)C(C)C [mPEG3-Val-Dasatinib] next.
Solution: 85
